- Tested on: HeLa Kyoto
- assay.method.text: thermal stability score vs G1/S (z-score of summed log2 fold changes over temperatures); higher = more thermally stable than in G1/S
- experimental.conditions: cell cycle stage: early G1 (4.5 h after nocodazole release)
Items are presented alongside their recorded thermal stability score.
Please give only the number in your answer, with no unit.

Ask: If you can, please state the reported thermal stability score value of MEGMDVDLDPELMQKFSCLGTTDKDVLISEFQRLLGFQLNPAGCAFFLDMTNWNLQAAIGAYYDFESPNISVPSMSFVEDVTIGEGESIPPDTQFVKTWRIQNSGAEAWPPGVCLKYVGGDQFGHVNMVMVRSLEPQEIADVSVQMCSPSRAGMYQGQWRMCTATGLYYGDVIWVILSVEVGGLLGVTQQLSSFETEFNTQPHRKVEGNFNPFASPQKNRQSDENNLKDPGGSEFDSISKNTWAPAPDTWAPAPDQTEQDQNRLSQNSVNLSPSSHANNLSVVTYSKGLHGPYPFGQS [C6ORF106] .
Reply: 0.563

Ask: Then this sequence: MGCTLSAEDKAAVERSKMIDRNLREDGEKAAKEVKLLLLGAGESGKSTIVKQMKIIHEDGYSEDECKQYKVVVYSNTIQSIIAIIRAMGRLKIDFGEAARADDARQLFVLAGSAEEGVMTPELAGVIKRLWRDGGVQACFSRSREYQLNDSASYYLNDLDRISQSNYIPTQQDVLRTRVKTTGIVETHFTFKDLYFKMFDVGGQRSERKKWIHCFEGVTAIIFCVALSDYDLVLAEDEEMNRMHESMKLFDSICNNKWFTETSIILFLNKKDLFEEKIKRSPLTICYPEYTGSNTYEEAAAYIQCQFEDLNRRKDTKEIYTHFTCATDTKNVQFVFDAVTDVIIKNNLKECGLY [GNAI3]
Reply: 0.761

Ask: Then this sequence: MSDVEENNFEGRESRSQSKSPTGTPARVKSESRSGSRSPSRVSKHSESHSRSRSKSRSRSRRHSHRRYTRSRSHSHSHRRRSRSRSYTPEYRRRRSRSHSPMSNRRRHTGSRANPDPNTCLGVFGLSLYTTERDLREVFSRYGPLSGVNVVYDQRTGRSRGFAFVYFERIDDSKEAMERANGMELDGRRIRVDYSITKRAHTPTPGIYMGRPTHSGGGGGGGGGGGGGGGGRRRDSYYDRGYDRGYDRYEDYDYRYRRRSPSPYYSRYRSRSRSRSYSPRRY [TRA2A]
Reply: 1.2

----------
- Test system: HeLa Kyoto
- assay.method.text: melting temperature (median over replicates), in situ; higher = more thermally stable
- experimental.conditions: cell cycle stage: mitosis
Items are presented alongside their recorded melting temperature.
Write down the numeric answer in °C and omit the unit.

Reference set, count: 3
input.sequence: MKPLVVFVLGGPGAGKGTQCARIVEKYGYTHLSAGELLRDERKNPDSQYGELIEKYIKEGKIVPVEITISLLKREMDQTMAANAQKNKFLIDGFPRNQDNLQGWNKTMDGKADVSFVLFFDCNNEICIERCLERGKSSGRSDDNRESLEKRIQTYLQSTKPIIDLYEEMGKVKKIDASKSVDEVFDEVVQIFDKEG [CMPK1]
assay.system: HeLa Kyoto
measured.result: 52.2
//
input.sequence: MAFRQALQLAACGLAGGSAAVLFSAVAVGKPRAGGDAEPRPAEPPAWAGGARPGPGVWDPNWDRREPLSLINVRKRNVESGEEELASKLDHYKAKATRHIFLIRHSQYHVDGSLEKDRTLTPLGREQAELTGLRLASLGLKFNKIVHSSMTRAIETTDIISRHLPGVCKVSTDLLREGAPIEPDPPVSHWKPEAVQYYEDGARIEAAFRNYIHRADARQEEDSYEIFICHANVIRYIVCRALQFPPEGWLRLSLNNGSITHLVIRPNGRVALRTLGDTGFMPPDKITRS [PGAM5]
assay.system: HeLa Kyoto
measured.result: 52.2
//
input.sequence: MSAAGLLAPAPAQAGAPPAPEYYPEEDEELESAEDDERSCRGRESDEDTEDASETDLAKHDEEDYVEMKEQMYQDKLASLKRQLQQLQEGTLQEYQKRMKKLDQQYKERIRNAELFLQLETEQVERNYIKEKKAAVKEFEDKKVELKENLIAELEEKKKMIENEKLTMELTGDSMEVKPIMTRKLRRRPNDPVPIPDKRRKPAPAQLNYLLTDEQIMEDLRTLNKLKSPKRPASPSSPEHLPATPAESPAQRFEARIEDGKLYYDKRWYHKSQAIYLESKDNQKLSCVISSVGANEIWVRKTSDSTKMRIYLGQLQRGLFVIRRRSAA [SUDS3]
assay.system: HeLa Kyoto
measured.result: 50.6

Ask: If you can, please state the reported melting temperature value of MFVPCGESAPDLAGFTLLMPAVSVGNVGQLAMDLIISTLNMSKIGYFYTDCLVPMVGNNPYATTEGNSTELSINAEVYSLPSRKLVALQLRSIFIKYKSKPFCEKLLSWVKSSGCARVIVLSSSHSYQRNDLQLRSTPFRYLLTPSMQKSVQNKIKSLNWEEMEKSRCIPEIDDSEFCIRIPGGGITKTLYDESCSKEIQMAVLLKFVSEGDNIPDALGLVEYLNEWLQILKPLSDDPTVSASRWKIPSSWRLLFGSGLPPALF [PSMG2] .
Reply: 53.9

Ask: Then this sequence: MAAFRDIEEVSQGLLSLLGANRAEAQQRRLLGRHEQVVERLLETQDGAEKQLREILTMEKEVAQSLLNAKEQVHQGGVELQQLEAGLQEAGEEDTRLKASLLQLTRELEELKEIEADLERQEKEVDEDTTVTIPSAVYVAQLYHQVSKIEWDYECEPGMVKGIHHGPSVAQPIHLDSTQLSRKFISDYLWSLVDTEW [SPC24]
Reply: 49.4

Ask: Then this sequence: MSSSPVKRQRMESALDQLKQFTTVVADTGDFHAIDEYKPQDATTNPSLILAAAQMPAYQELVEEAIAYGRKLGGSQEDQIKNAIDKLFVLFGAEILKKIPGRVSTEVDARLSFDKDAMVARARRLIELYKEAGISKDRILIKLSSTWEGIQAGKELEEQHGIHCNMTLLFSFAQAVACAEAGVTLISPFVGRILDWHVANTDKKSYEPLEDPGVKSVTKIYNYYKKFSYKTIVMGASFRNTGEIKALAGCDFLTISPKLLGELLQDNAKLVPVLSAKAAQASDLEKIHLDEKSFRWLHNEDQMAVEKLSDGIRKFAADAVKLERMLTERMFNAENGK [TALDO1]
Reply: 52.5

Ask: Then this sequence: MSGESARSLGKGSAPPGPVPEGSIRIYSMRFCPFAERTRLVLKAKGIRHEVININLKNKPEWFFKKNPFGLVPVLENSQGQLIYESAITCEYLDEAYPGKKLLPDDPYEKACQKMILELFSKVPSLVGSFIRSQNKEDYAGLKEEFRKEFTKLEEVLTNKKTTFFGGNSISMIDYLIWPWFERLEAMKLNECVDHTPKLKLWMAAMKEDPTVSALLTSEKDWQGFLELYLQNSPEACDYGL [GSTO1]
Reply: 54.2

Ask: Then this sequence: MAMLRVQPEAQAKVDVFREDLCTKTENLLGSYFPKKISELDAFLKEPALNEANLSNLKAPLDIPVPDPVKEKEKEERKKQQEKEDKDEKKKGEDEDKGPPCGPVNCNEKIVVLLQRLKPEIKDVIEQLNLVTTWLQLQIPRIEDGNNFGVAVQEKVFELMTSLHTKLEGFHTQISKYFSERGDAVTKAAKQPHVGDYRQLVHELDEAEYRDIRLMVMEIRNAYAVLYDIILKNFEKLKKPRGETKGMIY [PSME1]
Reply: 53.8

Ask: Then this sequence: MASYYEILDVPRSASADDIKKAYRRKALQWHPDKNPDNKEFAEKKFKEVAEAYEVLSDKHKREIYDRYGREGLTGTGTGPSRAEAGSGGPGFTFTFRSPEEVFREFFGSGDPFAELFDDLGPFSELQNRGSRHSGPFFTFSSSFPGHSDFSSSSFSFSPGAGAFRSVSTSTTFVQGRRITTRRIMENGQERVEVEEDGQLKSVTINGVPDDLALGLELSRREQQPSVTSRSGGTQVQQTPASCPLDSDLSEDEDLQLAMAYSLSEMEAAGKKPAGGREAQHRRQGRPKAQHQDPGLGGTQEGARGEATKRSPSPEEKASRCLIL [DNAJB2]
Reply: 50.5

Ask: Then this sequence: MSCESSMVLGYWDIRGLAHAIRLLLEFTDTSYEEKRYTCGEAPDYDRSQWLDVKFKLDLDFPNLPYLLDGKNKITQSNAILRYIARKHNMCGETEEEKIRVDIIENQVMDFRTQLIRLCYSSDHEKLKPQYLEELPGQLKQFSMFLGKFSWFAGEKLTFVDFLTYDILDQNRIFDPKCLDEFPNLKAFMCRFEALEKIAAYLQSDQFCKMPINNKMAQWGNKPVC [GSTM3]
Reply: 48.3

Ask: Then this sequence: MFCEKAMELIRELHRAPEGQLPAFNEDGLRQVLEEMKALYEQNQSDVNEAKSGGRSDLIPTIKFRHCSLLRNRRCTVAYLYDRLLRIRALRWEYGSVLPNALRFHMAAEEMEWFNNYKRSLATYMRSLGGDEGLDITQDMKPPKSLYIEVRCLKDYGEFEVDDGTSVLLKKNSQHFLPRWKCEQLIRQGVLEHILS [GINS1]
Reply: 51.7
